Reported melting point values for the following compounds.

Example entries begin here.
CCCC(CCC)n1nnc2c(Nc3c(Br)cc(OC)cc3OC)nc(C)cc21	140 to 141 °C
O=C(O)CCc1nc2c(F)c(F)cc(F)c2s1	123 to 125 °C
CCc1nn(-c2ccccn2)c2[nH]c3cc(F)c(F)cc3c(=O)c12	247 to 248 °C
NS(=O)(=O)c1ccc(-c2cn(-c3nc(-c4cccc(Cl)c4)cc(C(F)(F)F)n3)cn2)s1	280 °C
O=C(O)C(=O)c1ccc(O)c(Cl)c1	116 to 117 °C
COc1cc(Nc2nccc(-c3ccc(N4CCNC(CO)C4)nc3)n2)cc(OC)c1OC (stereo unspecified)	118 to 119 °C
CN(C(=O)c1cccc(S(=O)(=O)N(C)c2ccc(Br)cc2)c1)c1ccc(Br)cc1F	136 to 137 °C
Cc1ccc(OCC(=O)O)c(I)n1	170 to 172 °C

What value of measured melting point is listed for Oc1cccc(SCCCSc2ccc(Cl)cc2)c1 ?
102 °C

What value of measured melting point is listed for Cc1ccc2cc(NC(=O)c3cccc(SCc4cnccn4)c3)ccc2n1 ?
102 to 105 °C

What value of measured melting point is listed for Cc1cc(-c2ccc(C(F)(F)F)cc2)cnc1N=CN(C)C ?
74 °C

What value of measured melting point is listed for C[C@H](Cn1ccnc1)NC(=O)c1c[nH]c2ncc(-c3nn(C)c4cc(Cl)ccc34)nc12 ?
276 to 279 °C

----------
Reported melting point values for the following compounds.

Cc1cc(F)ccc1-c1c(O)c(C)c(-c2ccc(F)cc2)oc1=O	191 to 193 °C
C=CCOC(=O)N=C(OCC)N1Cc2ccccc2-c2ccccc2C1	76 to 77.5 °C

What value of measured melting point is listed for CC[C@H](C)[C@H](OCc1ccccc1)[C@H]1[C@H]([N+](=O)[O-])[C@H](c2ccccc2)N[C@@H]1C(=O)NCC(=O)O ?
156 to 157 °C

What value of measured melting point is listed for COc1cc(N)ccc1-c1cnc(C)s1 ?
125 to 129 °C

What value of measured melting point is listed for CCCN(CCC)[C@@H]1CCc2cc(CNC(=O)c3ccc(Cl)cc3)ccc2C1 ?
141 to 142 °C

What value of measured melting point is listed for O=C1CC2(CCCCC2)CN1O ?
110 °C

What value of measured melting point is listed for COC(=O)c1cc(Oc2cccnc2)c(C(F)(F)F)cc1[N+](=O)[O-] ?
98 to 100 °C

----------
Reported melting point values for the following molecules.

Example entries begin here.
O=C(Nc1ccc2ccc(Cl)nc2n1)c1cnccn1	308 °C
CCOC(=O)C=C1CN(C)C(=O)c2ccccc2N1	154 to 155 °C
NC(=O)c1cc(Cl)c([N+](=O)[O-])cc1[N+](=O)[O-]	201 to 203 °C
CCCCCCCNC1=CC(=O)c2c(OC)ccc(OC)c2C1=O	74 to 75 °C
Cn1c(CO)nnc1NCCCOc1cccc(CN2CCCCC2)c1	151 to 152 °C

# next molecule below
What value of measured melting point is listed for Cc1nc(N2CCN(Cc3ccncc3)C2=O)sc1C(=O)NCc1cccnc1 ?
233 to 235 °C

----------
endpoint: melting point

Example entries begin here.
Cc1ccc(Oc2ccc(C3=CC=CN4CCS(=O)(=O)N=C34)cc2)cc1	248 to 249 °C
NC(=O)c1ccc(F)c2c1OCC(N(CCCc1c[nH]c3ccc(F)cc13)C1CCC1)C2 (configuration not stated)	132 °C
CCN(CC)CCNc1ccc(C=O)c2sc3ccc(Br)cc3c(=O)c12	145 to 146 °C

What value of measured melting point is listed for NCC(O)COc1cc([N+](=O)[O-])ccc1N (configuration not stated) ?
141 °C

What value of measured melting point is listed for COc1ccc2c(=O)cc(C(OC)OC)oc2c1 ?
99 to 101 °C
